Every entry's value here was drawn from ChEMBL document CHEMBL2218924.

test_target: Calcium/calmodulin-dependent protein kinase type IV (Homo sapiens) (UniProt Q16566)
Sequence (Q16566 whole entry): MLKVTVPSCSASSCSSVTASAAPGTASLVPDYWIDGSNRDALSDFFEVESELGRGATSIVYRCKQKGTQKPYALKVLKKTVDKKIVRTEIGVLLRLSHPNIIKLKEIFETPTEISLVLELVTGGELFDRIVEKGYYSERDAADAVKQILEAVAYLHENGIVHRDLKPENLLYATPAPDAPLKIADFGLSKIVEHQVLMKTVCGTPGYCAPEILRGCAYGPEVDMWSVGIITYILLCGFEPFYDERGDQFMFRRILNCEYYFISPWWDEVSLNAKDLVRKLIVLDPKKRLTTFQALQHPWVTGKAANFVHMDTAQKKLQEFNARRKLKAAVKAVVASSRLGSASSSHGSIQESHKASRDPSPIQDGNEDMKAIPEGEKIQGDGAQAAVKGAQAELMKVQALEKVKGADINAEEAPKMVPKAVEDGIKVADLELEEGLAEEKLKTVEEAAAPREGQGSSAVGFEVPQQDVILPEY
study_conditions: at 1 µM
Below, each entry is listed alongside its reported residual activity.

>  <smiles>
CC#CC(=O)Nc1cc2c(Nc3ccc(F)c(Cl)c3)ncnc2cn1

>  <test_target>
Calcium/calmodulin-dependent protein kinase type IV (Homo sapiens) (UniProt Q16566)

>  <residual activity (%)>
121

$$$$
>  <smiles>
O=C1Nc2cc(Br)ccc2/C1=C1/Nc2ccccc2/C1=N\O

>  <test_target>
Calcium/calmodulin-dependent protein kinase type IV (Homo sapiens) (UniProt Q16566)

>  <residual activity (%)>
59

$$$$
>  <smiles>
Oc1n[nH]c2nnc(-c3c(-c4ccccc4)nn4ccccc34)cc12

>  <test_target>
Calcium/calmodulin-dependent protein kinase type IV (Homo sapiens) (UniProt Q16566)

>  <residual activity (%)>
105

$$$$
>  <smiles>
O=C1NC(=O)/C(=C/c2ccc3c(c2)OC(F)(F)O3)S1

>  <test_target>
Calcium/calmodulin-dependent protein kinase type IV (Homo sapiens) (UniProt Q16566)

>  <residual activity (%)>
99

$$$$
>  <smiles>
COc1cccc(-c2cc(=O)c3ccccc3o2)c1N

>  <test_target>
Calcium/calmodulin-dependent protein kinase type IV (Homo sapiens) (UniProt Q16566)

>  <residual activity (%)>
108

$$$$
>  <smiles>
O=C1Nc2ccc(Br)cc2/C1=C\c1cc2c([nH]1)CCCC2

>  <test_target>
Calcium/calmodulin-dependent protein kinase type IV (Homo sapiens) (UniProt Q16566)

>  <residual activity (%)>
135

$$$$
